These measurements were taken from PubChem BioAssay (Tox21).

assay: qHTS RealTime-Glo MT Cell Viability Assay in HEK293 cells - 24 hour (AID 1224886); conditions: RealTime-Glo luminescence; series mostly up to 76.8 µM; note: nearly all actives have a fitted effect of over 50% in size
Results filed as inconclusive are left out. The source made the active and inactive calls. Calls come from the whole dose curve; as a rule, active = well fitted cell-killing curve with a large enough effect in the repeat runs; inconclusive = weak or mixed curves, or effect the other way; inactive = flat fitted curve, though single readings scatter.
Outcome codes: active, inactive

compound: O=C(O)CCn1c2c(c3ccccc31)C[C@H](NS(=O)(=O)c1ccc(F)cc1)CC2
discreteLabel: inactive
//
compound: CN1CN(C)CN(C)C1
discreteLabel: inactive
//
compound: O=Nc1ccc(NO)cc1
discreteLabel: inactive
//
compound: C=C(C)CCCC
discreteLabel: inactive
//
compound: CC(C)=CCCC(C)O (stereo unspecified)
discreteLabel: inactive
//
compound: CC(=O)Oc1ccc(C2(c3ccc(OC(C)=O)cc3)C(=O)Nc3ccccc32)cc1
discreteLabel: inactive
//
compound: CC1CCCCC1
discreteLabel: inactive
//
compound: CC(C)c1ccccc1N
discreteLabel: inactive
//
compound: C/C=C/c1ccc(OC)c(OC)c1
discreteLabel: inactive
//
compound: CC(=O)C=O
discreteLabel: inactive
//
compound: CCCCCCCCCCCCCc1ccccc1
discreteLabel: inactive
//
compound: C=CC(C)C#N (stereo unspecified)
discreteLabel: inactive
//
compound: C=C[C@](C)(O)CC[C@@H]1[C@@]2(C)CCCC(C)(C)[C@@H]2CC[C@@]1(C)O
discreteLabel: active
//
compound: CCc1c(C(=O)O)c(=O)cnn1-c1ccc(Cl)cc1
discreteLabel: inactive
//
compound: O=C1c2c(O)ccc([N+](=O)[O-])c2C(=O)c2c([N+](=O)[O-])ccc(O)c21
discreteLabel: active
//
compound: O=C1NCCN1CCN1CCC(c2cn(-c3ccc(F)cc3)c3ccc(Cl)cc23)CC1
discreteLabel: active
//
compound: COC(=O)CC(C)CCC=C(C)C (stereo unspecified)
discreteLabel: inactive
//
compound: OCCCc1cccnc1
discreteLabel: inactive
//
compound: Cc1cn[nH]c1
discreteLabel: inactive
//
compound: C=CCCCCCCC=C
discreteLabel: inactive
//
compound: CSc1ccc2c(c1)N(CCC1CCCCN1C)c1ccccc1S2 (stereo unspecified)
discreteLabel: active
//
compound: CC1(C)C(=O)N(Br)C(=O)N1Br
discreteLabel: inactive
//
compound: C[Si](C)O[Si](C)C
discreteLabel: inactive
//
compound: CCC(C)(C)c1cc(O)c(C(C)(C)CC)cc1O
discreteLabel: active
//
compound: CCCCCCCCCCOCC(O)CN (stereo unspecified)
discreteLabel: active
//
compound: CC1(C)COCN1
discreteLabel: inactive
//
compound: Brc1ccccn1
discreteLabel: inactive
//
compound: C1CC(COCC2CO2)CCC1COCC1CO1 (stereo unspecified)
discreteLabel: inactive
//
compound: CO[C@H]1C=CO[C@@]2(C)Oc3c(C)c(O)c4c(O)c(cc(O)c4c3C2=O)NC(=O)/C(C)=C\C=C/[C@H](C)[C@H](O)[C@@H](C)[C@@H](O)[C@@H](C)[C@H](OC(C)=O)[C@@H]1C
discreteLabel: inactive
//
compound: OCCC(O)CO (stereo unspecified)
discreteLabel: inactive
//
compound: Clc1ccc(C(Cn2ccnc2)OCc2ccsc2Cl)c(Cl)c1 (stereo unspecified)
discreteLabel: active
//
compound: COc1cc(C=C2CCC/C(=C\c3ccc(O)c(OC)c3)C2=O)ccc1O
discreteLabel: active
//
compound: Cc1cncc(C)c1
discreteLabel: inactive
//
compound: OCCCS
discreteLabel: inactive
//
compound: Cc1occc1SSc1ccoc1C
discreteLabel: inactive
//
compound: CCCCCCS
discreteLabel: inactive
//
compound: c1cc[nH]c1
discreteLabel: inactive
//
compound: O=C1NC2CCCCN2C12CCN(CCCN1c3ccccc3CCc3ccc(Cl)cc31)CC2 (stereo unspecified)
discreteLabel: active
//
compound: O=C1C=CC(=O)N1c1ccccc1
discreteLabel: active
//
compound: O=C1OC(=O)c2cccc3cccc1c23
discreteLabel: inactive
//
compound: CCN(CC)c1ccc(N)cc1
discreteLabel: active
//
compound: CC(C)=CC1CC(C)CCO1 (stereo unspecified)
discreteLabel: inactive
//
compound: CCCC(=O)OCC(COC(=O)CCC)OC(=O)CCC
discreteLabel: inactive
//
compound: Cc1cccc(Br)c1
discreteLabel: inactive
//
compound: C=CC(=O)OCCOCC(CC)(COCCOC(=O)C=C)COCCOC(=O)C=C
discreteLabel: active
//
compound: CCCCCCCC/C=C\CCCCCCCC(=O)OCCOC(=O)CCCCCCC/C=C\CCCCCCCC
discreteLabel: inactive
